Target: Nitric oxide synthase 3 (Homo sapiens, UniProt P29474)
Sequence (P29474 whole entry): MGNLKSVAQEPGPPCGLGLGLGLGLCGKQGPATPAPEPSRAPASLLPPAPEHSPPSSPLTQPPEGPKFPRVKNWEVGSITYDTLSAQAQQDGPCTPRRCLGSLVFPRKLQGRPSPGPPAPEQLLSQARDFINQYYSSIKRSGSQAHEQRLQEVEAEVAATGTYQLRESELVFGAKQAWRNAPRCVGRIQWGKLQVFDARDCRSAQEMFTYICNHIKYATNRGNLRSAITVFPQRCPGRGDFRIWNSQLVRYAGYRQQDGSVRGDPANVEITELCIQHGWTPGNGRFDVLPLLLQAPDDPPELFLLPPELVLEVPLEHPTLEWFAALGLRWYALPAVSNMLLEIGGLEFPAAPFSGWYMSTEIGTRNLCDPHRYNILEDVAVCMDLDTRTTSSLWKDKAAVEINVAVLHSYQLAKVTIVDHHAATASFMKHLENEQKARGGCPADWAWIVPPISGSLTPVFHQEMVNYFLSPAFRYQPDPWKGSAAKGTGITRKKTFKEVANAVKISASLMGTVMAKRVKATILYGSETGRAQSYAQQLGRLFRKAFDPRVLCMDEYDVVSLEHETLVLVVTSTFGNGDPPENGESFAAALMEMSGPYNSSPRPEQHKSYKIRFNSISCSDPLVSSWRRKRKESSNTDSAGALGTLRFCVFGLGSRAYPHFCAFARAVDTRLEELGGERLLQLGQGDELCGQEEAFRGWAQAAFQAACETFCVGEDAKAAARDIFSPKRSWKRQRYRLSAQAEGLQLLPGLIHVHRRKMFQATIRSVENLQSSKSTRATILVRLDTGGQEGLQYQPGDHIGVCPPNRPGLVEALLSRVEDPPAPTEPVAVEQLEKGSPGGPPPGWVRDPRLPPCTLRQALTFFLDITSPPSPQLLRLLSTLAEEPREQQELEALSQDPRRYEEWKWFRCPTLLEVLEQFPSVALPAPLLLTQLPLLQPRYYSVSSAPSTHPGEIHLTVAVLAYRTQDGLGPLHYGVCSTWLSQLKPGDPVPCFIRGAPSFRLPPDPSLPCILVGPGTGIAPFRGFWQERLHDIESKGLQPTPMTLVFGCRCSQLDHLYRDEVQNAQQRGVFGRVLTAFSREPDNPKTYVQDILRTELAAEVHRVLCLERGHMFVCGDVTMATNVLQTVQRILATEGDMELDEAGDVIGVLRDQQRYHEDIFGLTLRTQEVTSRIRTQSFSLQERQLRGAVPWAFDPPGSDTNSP
Each record here notes measured IC50.
outcome measure: IC50 (µM)

>>> reading("COc1cc(-c2cccc(N)n2)c(OC)cc1OCCN(C)C")
21.9
>>> reading("CCc1cc(-c2cccc(N)n2)c(OC)cc1CCN(C)C")
16.5

###

Each record here notes measured pIC50.
Biological target: Nitric oxide synthase 1 (Homo sapiens, UniProt P29475)
Sequence (P29475 whole entry): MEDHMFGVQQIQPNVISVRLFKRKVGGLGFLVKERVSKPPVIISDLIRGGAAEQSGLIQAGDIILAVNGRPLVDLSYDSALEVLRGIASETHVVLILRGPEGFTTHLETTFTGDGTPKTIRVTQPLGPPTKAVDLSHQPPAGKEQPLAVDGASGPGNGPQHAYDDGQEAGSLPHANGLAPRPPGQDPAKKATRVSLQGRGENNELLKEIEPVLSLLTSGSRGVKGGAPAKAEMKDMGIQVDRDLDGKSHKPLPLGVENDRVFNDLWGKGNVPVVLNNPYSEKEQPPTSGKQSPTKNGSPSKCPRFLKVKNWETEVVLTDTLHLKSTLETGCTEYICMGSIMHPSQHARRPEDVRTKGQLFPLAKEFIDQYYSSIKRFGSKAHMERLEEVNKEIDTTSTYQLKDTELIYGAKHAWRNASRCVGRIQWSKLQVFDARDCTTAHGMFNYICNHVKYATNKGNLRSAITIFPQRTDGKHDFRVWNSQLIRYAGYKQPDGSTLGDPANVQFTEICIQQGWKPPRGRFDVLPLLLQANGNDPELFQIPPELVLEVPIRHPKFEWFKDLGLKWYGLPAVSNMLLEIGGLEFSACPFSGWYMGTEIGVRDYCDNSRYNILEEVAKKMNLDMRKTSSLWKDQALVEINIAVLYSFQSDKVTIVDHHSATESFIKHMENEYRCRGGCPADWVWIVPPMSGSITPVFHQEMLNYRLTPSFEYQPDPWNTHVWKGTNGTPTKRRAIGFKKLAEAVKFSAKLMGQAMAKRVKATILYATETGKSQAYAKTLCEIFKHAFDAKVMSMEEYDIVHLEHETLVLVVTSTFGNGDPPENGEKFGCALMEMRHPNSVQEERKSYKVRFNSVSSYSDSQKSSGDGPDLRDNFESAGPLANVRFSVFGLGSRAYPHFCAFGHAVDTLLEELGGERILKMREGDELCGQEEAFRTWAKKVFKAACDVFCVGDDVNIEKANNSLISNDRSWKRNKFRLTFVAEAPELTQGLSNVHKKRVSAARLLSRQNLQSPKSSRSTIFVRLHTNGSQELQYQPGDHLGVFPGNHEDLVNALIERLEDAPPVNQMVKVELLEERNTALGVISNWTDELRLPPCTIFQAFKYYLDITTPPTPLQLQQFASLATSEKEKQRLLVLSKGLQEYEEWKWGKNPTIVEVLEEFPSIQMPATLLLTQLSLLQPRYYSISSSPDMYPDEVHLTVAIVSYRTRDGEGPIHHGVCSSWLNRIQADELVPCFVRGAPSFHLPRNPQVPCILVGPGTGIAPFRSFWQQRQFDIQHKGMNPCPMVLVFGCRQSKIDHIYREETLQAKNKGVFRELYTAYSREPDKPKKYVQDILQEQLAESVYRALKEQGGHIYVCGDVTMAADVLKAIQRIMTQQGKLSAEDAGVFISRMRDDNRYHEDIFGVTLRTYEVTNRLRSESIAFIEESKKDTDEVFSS
pIC50: −log10 of the molar value.
outcome measure: pIC50

>>> reading("COc1cc(-c2cccc(N)n2)c(OC)cc1OCCN(C)C")
6.95
>>> reading("COc1cc(-c2cccc(N)n2)c(OC)cc1CCN(C)C")
6.63
>>> reading("COc1cc(-c2cccc(N)n2)c(OC)cc1CCCN(C)C")
6.70
>>> reading("CCc1cc(-c2cccc(N)n2)c(OC)cc1CCN(C)C")
7.12
